Items are presented alongside their recorded Percent Effect.
tested on: Trypanosoma cruzi; experiment: Trypanosoma cruzi phosphomannomutase and mannose-1-phosphate guanylyltransferase assay; assay type: functional; set-up: scale not given: direction of the effect not stated beside the values; details: 10 µM
Report the figure in % without appending any unit label.

In the examples that follow, each entry is paired with its recorded Percent Effect.
COC(=O)c1cccn1C1CCN(C(=O)c2cn[nH]c2C)CC1 :: 4.31
NC(=O)c1nnn(-c2ccc(Br)cc2)n1 :: 7.59
O=C(NC1CC1)[C@@H]1CCO[C@@H]2CCN(C3CCOCC3)C[C@@H]21 :: 6.98

Lookup: API: value(readout=Percent Effect, system=Trypanosoma cruzi) for record "Cc1nc(CN2CCN(C(=O)c3cc(C4CC4)on3)CC2)cs1"
Found: -0.686

Lookup: Then what about the compound "CC(C)Cc1noc(CN2CCN(c3nccs3)CC2)n1" ?
Found: -5.99

Lookup: Now try "CNc1cc(CNC(=O)c2ccccc2)nc(-c2ccncc2)n1" .
Found: 3.56

Lookup: Similarly, "OC[C@H]1CC[C@]2(CC1)CN(Cc1ccccn1)Cc1ccccc1O2" ?
Found: -3.56

Lookup: Cool, now "Cc1ncccc1NC(=O)[C@H]1C[C@@H]2CCN(Cc3nccs3)C[C@@H]2O1"
Found: 0.293

Lookup: For O=C(c1ccccn1)N1CCCC(c2nccn2CC2CCC2)C1 (centres undefined) then?
Found: -2.35

Lookup: What would you report for "CC(C)CN1Cc2c(C(=O)N(C)C)ncn2-c2ccccc2S1(=O)=O" ?
Found: -2.83

Lookup: Do the same for "Cc1ccc(C(=O)NCC2(O)CCOCC2)cc1Br" please
Found: -0.772

Lookup: What do you have for Cc1csc(N2CCN(Cc3ccccn3)CC2C)n1 (centres undefined) ?
Found: -2.74

Lookup: Continue with O=C(Nc1cccc(Cl)c1)c1nn(C2CCS(=O)(=O)C2)c2c1CCCC2 (centres undefined)
Found: -1.27

Lookup: Another compound to check: "Cc1oc(C)c(C(=O)N2CCCN(Cc3cscn3)CC2)c1C"
Found: -1.47

Lookup: Cool, now Cc1nc2n(n1)CC(Nc1cc(C(F)(F)F)nc3ncnn13)CC2 (centres undefined)
Found: 5.49

Lookup: Another compound to look at: "CN(CCc1ccccc1)Cc1cc(C(=O)N2CCCC2(C)C)no1"
Found: -2.38

Lookup: What do you get for "c1cc2nc(C3CCN(CC4CC4)CC3)nn2cc1N1CCCC1" ?
Found: 0.595

Lookup: Note, next up: c1ccc(-c2nccc(CNCC3CCCN3c3cccnn3)n2)cc1 (centres undefined)
Found: -0.94

Lookup: Entry to check: "Cc1cc(N2CCN(Cc3ccc(-c4cc[nH]n4)o3)CC2)cc(C)n1"
Found: 10.2

Lookup: Now try "CCc1ccccc1-n1cc(O)c(C(=O)N2CCCCC2)n1" .
Found: -4.36

Lookup: Record: "Cc1cncc(C(=O)N2CCC(Cn3cc(-c4ccsc4)nn3)CC2)c1"
Found: -3.86

Lookup: Another: CC1CCCN(C(=O)c2csc(S(N)(=O)=O)c2)CC1 (centres undefined)
Found: -6.75

Lookup: Note, next up: "CN1CCN(Cc2ccccc2CNC(=O)c2ccc(Br)cc2)CC1"
Found: 0.0978

Lookup: // next record "O=C(CCNS(=O)(=O)c1ccc2c(c1)CCCC2)NCc1ccoc1"
Found: -2.43

---

target: Sialic acid-binding Ig-like lectin 9 (Homo sapiens) (UniProt Q9Y336); experiment: Hs-Siglec9 ALPHAscreen SOP 20170721; parameters: scale not given: direction of the effect not stated beside the values; conditions: 10 µM
Sequence (Q9Y336 whole entry): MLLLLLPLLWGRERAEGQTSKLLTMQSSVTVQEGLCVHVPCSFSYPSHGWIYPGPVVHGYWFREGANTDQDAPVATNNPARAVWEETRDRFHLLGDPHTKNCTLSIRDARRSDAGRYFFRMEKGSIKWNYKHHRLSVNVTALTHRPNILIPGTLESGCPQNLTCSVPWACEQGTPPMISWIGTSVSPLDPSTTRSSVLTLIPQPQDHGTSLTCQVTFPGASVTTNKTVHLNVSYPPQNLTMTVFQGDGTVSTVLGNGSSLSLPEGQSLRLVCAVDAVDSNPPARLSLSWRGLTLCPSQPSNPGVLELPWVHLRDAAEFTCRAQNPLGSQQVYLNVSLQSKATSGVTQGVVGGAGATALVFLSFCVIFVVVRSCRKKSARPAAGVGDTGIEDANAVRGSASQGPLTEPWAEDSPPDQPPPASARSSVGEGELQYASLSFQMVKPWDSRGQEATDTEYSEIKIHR
Recorded Percent Effect for the following compounds
Dear colleague, please return just the value in %, with no unit written.

Worked set:
COc1c(CNCc2ccc(CN(C)C)cc2)c(C)nn1C :: 0.303
Cc1cn2c(n1)CCC(NC(=O)c1cnc(C)nc1C(C)C)C2 (stereo unspecified) :: 12.9
Cc1nc(COC[C@@H]2CC[C@H]3[C@H](CCN3S(C)(=O)=O)O2)cs1 :: -10.8
Cc1ccc([C@]2(O)CC[C@H]3CN(Cc4cccc(Cl)c4Cl)C[C@H]32)nc1 :: -9.17
CN1N=C(C(=O)N2CCCC(CCc3c(F)cccc3F)C2)CCC1=O (stereo unspecified) :: 7.41

Next compound, please.
Lookup: Value lookup for Percent Effect; key = "OCCOc1nc(-c2ccccc2Cl)no1"
Found: 4.94

---

biological target: Sialic acid-binding Ig-like lectin 9 (Homo sapiens) (UniProt Q9Y336); assay: Hs-Siglec9 ALPHAscreen SOP 20170721; set-up: scale not given: direction of the effect not stated beside the values; details: 10 µM
endpointName: Percent Effect (%)
Write down the numeric answer in % and omit the unit.

CCn1ncnc1C(C)NC(=O)C1CCN(C(=O)COC)CC1 (configuration not stated) :: 0.673
CCc1nc(COc2ccc(OCc3cnn(C)c3)cc2)no1 :: 21.3
CC(c1nc(C2CC2)no1)N1CCN(Cc2ccccc2F)CC1 (configuration not stated) :: 3.98

Please look at the following molecule next.
Lookup: Percent Effect of "COCCNC(=O)[C@H]1CN(Cc2scnc2C)C[C@H]2OCC[C@@H]12" on Sialic acid-binding Ig-like lectin 9 (Homo sapiens) (UniProt Q9Y336)?
Found: 5.36

---

tested on: Trypanosoma cruzi; test: Trypanosoma cruzi phosphomannomutase and mannose-1-phosphate guanylyltransferase assay; format: functional; design: scale not given: direction of the effect not stated beside the values; conditions: 10 µM
Attribute: Percent Effect
Report the figure in % without appending any unit label.

Recorded Percent Effect, per entry:
O=C(Cc1ccc2c(c1)OCCO2)N1CCCC(n2ccnc2)C1 (configuration not stated) :: 10.7
O=C(c1cnn2c1OCCC2)N1CCN(C/C=C/c2ccccc2)CC1 :: -1.28
NC(=O)C(CNC(=O)Cc1ccc(F)cc1)Cc1ccc(F)cc1 (configuration not stated) :: -4.19
NS(=O)(=O)Cc1ccc(CNC(=O)NCC2CCOC2)cc1 (configuration not stated) :: 1.86
Cc1nc(CN2C[C@@H]3CN(C(=O)c4ccnnc4)C[C@@H]3C2=O)cs1 :: -0.684
O=C(Cc1ccsc1)N1CCCC(c2n[nH]c3nccnc23)C1 (configuration not stated) :: 4.94
CN1CCN(CCCNC(=O)c2cc(Cl)c3c(c2)OCO3)CC1 :: 3.6
OC(CN(Cc1ccccc1)Cc1ccncc1)c1cccs1 (configuration not stated) :: 4.79

Lookup: // query Percent Effect value for entry "CCOCCn1nnc(C2(NC(=O)c3ccccc3)CCCC2)n1"
Found: -0.292

Lookup: Now this one: CCOc1ccc(C2CC(=O)Nc3c2c(=O)nc2sccn32)cc1 (configuration not stated)
Found: 1.97

Lookup: // next record "Cn1ccnc1SCc1nc(C(C)(C)NC(=O)OC(C)(C)C)no1"
Found: 5.94

Lookup: And CN1CCCC(c2cccc(Cc3ccccc3Cl)n2)C1 (configuration not stated) ?
Found: 1.38

---

target: Proteasome subunit beta (Trypanosoma cruzi) (UniProt O96673); test: Trypanosoma cruzi proteasome chymotrypsin-like activity (TcProtChymo) assay.; type: functional; parameters: scale not given: in the data most compounds retested in dose-response had high values; conditions: 9.37 µM
Sequence (O96673 as listed by the source): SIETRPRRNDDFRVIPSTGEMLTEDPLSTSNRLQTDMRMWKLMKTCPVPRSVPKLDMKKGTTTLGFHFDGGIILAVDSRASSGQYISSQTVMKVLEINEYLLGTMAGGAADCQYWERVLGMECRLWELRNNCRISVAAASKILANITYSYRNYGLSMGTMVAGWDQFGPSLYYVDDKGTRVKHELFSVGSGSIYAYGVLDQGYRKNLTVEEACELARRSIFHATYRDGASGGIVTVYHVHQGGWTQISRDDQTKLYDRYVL
Param label: returns t when Percent Effect < 10%, returns f otherwise, including exact equality.

CN(Cc1nnc(C2CC2)n1C)C1CCN(CCc2cccs2)C1 (configuration not stated) :: f
O=C(COCC1CC1)N1CCCC(n2cncn2)C1 (configuration not stated) :: f
Cn1ccnc1CN1CCC2(COCCN(Cc3ccsc3)C2)C1 (configuration not stated) :: f
OCCN1CCN(Cc2coc(-c3ccc(Cl)cc3)n2)CC1 :: t
Cn1ncc2c1NC(=O)CC2c1ccc(Cl)cc1Cl (configuration not stated) :: f

Lookup: Given "CN(CC(N)=O)S(=O)(=O)c1ccc(F)cc1Cl" , is recorded Percent Effect strictly lower than 10%?
Found: t

Lookup: Continue with O=C(NCc1cccnc1-n1cccn1)C1CC(=O)N(CC2CC2)C1 (configuration not stated)
Found: t

Lookup: How about CS(=O)(=O)NC1CCCN(C(=O)NCc2cccnc2)C1 (configuration not stated) ?
Found: f

Lookup: Queued: "CCc1nnc2n1CCN(C(=O)c1ccc(-c3ccco3)nc1C)C2"
Found: f

Lookup: How about "Cc1ccc(C#N)c(N2CCC(c3nccn3CCN(C)C)CC2)n1" ?
Found: f

Lookup: Cool, now "CCN1CC2(CCNCC2)COc2ccccc2S1(=O)=O"
Found: f

Lookup: Please do the same for "CC(C)c1noc(CN(Cc2ccccc2F)C2CC2)n1" as well.
Found: f

---

# key: entry, value: Percent Effect
target: Proteasome subunit beta (Trypanosoma cruzi); assay: Trypanosoma cruzi proteasome chymotrypsin-like activity (TcProtChymo) assay.; type: functional; parameters: scale not given: in the data most compounds retested in dose-response had high values; conditions: 9.37 µM
The reply should contain only the number, in %.

Cc1cnccc1N1CCCN(C(=O)CCCc2cn[nH]c2)CC1 :: -1.06

Lookup: Fill in: Percent Effect of "Cc1nn(C)c(C)c1NC(=O)CN1CCc2c(nc(C(C)C)n2C)C1" is ___
Found: 7.93

Lookup: Please do the same for "Cc1cc(N2CCCN(C(=O)Cc3ccc(O)c(Cl)c3)CC2)ccn1" as well.
Found: 22.2

Lookup: Please answer likewise for "NCc1cnn(-c2ccccc2C(=O)NCCCn2ccnc2)c1"
Found: 0.312

Lookup: Please do the same for Cc1cn2nc(N3CCCC3CC(C)(C)C)sc2n1 (stereo not drawn) as well.
Found: 11

Lookup: How about COc1ccc(CN(Cc2cccnc2)CC2CCCO2)c(OC)c1 (stereo not drawn) ?
Found: 7.67

Lookup: Record: CC(=O)Nc1nc(C(=O)N2CCCC(c3cc(C)[nH]n3)C2)cs1 (stereo not drawn)
Found: 2.28

Lookup: Here is the next compound: NC(=O)CSCCC(=O)N1CCCC1c1ccsc1 (stereo not drawn)
Found: 4.74

Lookup: Check CC(C)(C)N1CC(C(=O)N2CCN(CCc3ccccc3)CC2)CC1=O (stereo not drawn) too.
Found: 17.1

Lookup: // query: "CCS(=O)(=O)N1CCC[C@]2(C(=O)N(C)C)CN(c3ccccn3)C[C@@H]2C1"
Found: 10.1
